Provide the reported IC50 of each item.
System: Plasmodium falciparum
Assay: Antimalarial activity against Plasmodium falciparum RKL9
Format: functional, organism-based
Express the result in µg/mL but write the number alone.

Query string: Entry under review: CC1(c2ccccc2)OOC(c2ccccc2)(c2ccccc2)OO1 . Reported IC50?
Result string: 3.91

Query string: Also check CCN(Cc1cc(C2(C)OOC(c3c[nH]c4ccccc34)OO2)ccc1O)c1ccccc1 (stereo not given)
Result string: 8.19

Query string: // repeat for CCN(Cc1cc(C2(C)OOC(c3ccccc3O)OO2)ccc1O)c1ccccc1 (stereo not given) and report
Result string: 5.3

----------
System: Plasmodium falciparum
Assay: Antimalarial activity against Plasmodium falciparum 3D7
Format: functional, organism-based
Conditions: read-out: EC50
Assign EC50 to each entry below.
API: value field is a number in nM; no unit string.

Query string: // query EC50 value for entry C[C@H]1[C@H](OC(=O)CCC(=O)Nc2ccc3ncnc(Cc4ccc(Cl)c(Cl)c4)c3c2)O[C@@H]2O[C@]3(C)CC[C@H]4[C@H](C)CC[C@@H]1[C@@]24OO3
Result string: 1.4

Query string: Moving on to the next compound: C[C@H]1[C@H](OC(=O)CCC(=O)O)O[C@@H]2O[C@@]3(C)CC[C@H]4[C@H](C)CC[C@@H]1[C@@]24OO3 [ARTESUNATE]
Result string: 8.9

Query string: Proceed to C[C@H]1[C@H](OC(=O)CCC(=O)OCCOC(=O)CC(=O)OCCOC(=O)CCC(=O)O[C@@H]2O[C@@H]3O[C@]4(C)CC[C@H]5[C@H](C)CC[C@@H]([C@H]2C)[C@@]35OO4)O[C@@H]2O[C@]3(C)CC[C@H]4[C@H](C)CC[C@@H]1[C@@]24OO3
Result string: 1.4

----------
Test system: Plasmodium falciparum
Assay: Antimalarial activity against Plasmodium falciparum D10
Assay type: functional, organism-based
Measured Endpoint: log10 IC50 (log10 of the value in nM)
All values: log10 IC50 [nM].

Query string: Hi! What's the reported log10 IC50 for Cc1ccccc1COC12CCCC(C1)C(C)(C)OO2 (stereo not given) on Plasmodium falciparum?
Result string: 2.87

Query string: Also C[C@H]1[C@@H](OCc2ccc(C(=O)N(CCCNc3ccnc4cc(Cl)ccc34)CC(=O)NC3CCCCC3)cc2)O[C@@H]2O[C@]3(C)CC[C@H]4[C@H](C)CC[C@@H]1[C@@]24OO3 , if possible.
Result string: 1.54

Query string: Same lookup for CC1(C)OOC2(OCCCC34CC5CC(CC(C5)C3)C4)CCCC1C2 (stereo not given) , please.
Result string: 2.38

Query string: Then this compound: C[C@H]1[C@@H](OCc2ccc(C(=O)N(CCNc3ccnc4cc(Cl)ccc34)CC(=O)NC(C)(C)C)cc2)O[C@@H]2O[C@]3(C)CC[C@H]4[C@H](C)CC[C@@H]1[C@@]24OO3
Result string: 1.43

Query string: Next: C[C@H]1[C@H](N2CCS(=O)(=O)CC2)O[C@@H]2O[C@]3(C)CC[C@H]4[C@H](C)CC[C@@H]1[C@@]24OO3
Result string: 0.04

----------
Tested on: Plasmodium falciparum
Assay: Antimalarial activity against Plasmodium falciparum K1
Format: functional, organism-based
Measured Endpoint: IC50 (nM)
Express it in nM; write the number only.

Query string: What does the record list as IC50 for C[C@H]1[C@H](N2CCN(C(=O)c3ccc(C(F)(F)F)cc3)CC2)O[C@@H]2O[C@]3(C)CC[C@H]4[C@H](C)CC[C@@H]1[C@@]24OO3 ?
Result string: 3.5

Query string: Moving on to the next compound: C[C@H]1[C@@H](OCc2ccc(C(=O)N(CCCNc3ccnc4cc(Cl)ccc34)CC(=O)NC3CCCCC3)cc2)O[C@@H]2O[C@]3(C)CC[C@H]4[C@H](C)CC[C@@H]1[C@@]24OO3
Result string: 21

Query string: Field entry: C[C@H]1[C@@H](OCc2ccc(C(=O)N(CCNc3ccnc4cc(Cl)ccc34)CC(=O)NC(C)(C)C)cc2)O[C@@H]2O[C@]3(C)CC[C@H]4[C@H](C)CC[C@@H]1[C@@]24OO3
Result string: 19
